// provenance: patent US20130129722A1

Target: Dimeric Mouse Ang-2FD conjugated to human IgG1 (mouse (Mus musculus))
Sequence (chain, as listed by the source limits assumed): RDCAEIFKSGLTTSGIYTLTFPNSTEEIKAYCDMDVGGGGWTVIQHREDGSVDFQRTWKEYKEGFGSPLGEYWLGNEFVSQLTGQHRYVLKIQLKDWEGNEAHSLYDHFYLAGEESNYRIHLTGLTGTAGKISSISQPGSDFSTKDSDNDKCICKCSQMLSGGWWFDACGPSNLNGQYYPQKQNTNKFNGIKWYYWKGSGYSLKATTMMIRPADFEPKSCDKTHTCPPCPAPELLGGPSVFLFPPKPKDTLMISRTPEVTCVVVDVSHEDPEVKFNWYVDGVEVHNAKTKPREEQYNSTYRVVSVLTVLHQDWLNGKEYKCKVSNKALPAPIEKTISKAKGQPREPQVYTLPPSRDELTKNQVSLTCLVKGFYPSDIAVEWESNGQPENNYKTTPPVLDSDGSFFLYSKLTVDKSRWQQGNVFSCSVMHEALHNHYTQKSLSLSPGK
Assay: ELISA, 16.67 nM antibody, Ang-2FD-hFc binding to coated hTie-2-mFc
measured.property: Percent Blocking of Ang-2FD Binding to Tie-2 (%)
Report as a plain number; the unit % is understood.

1. H1M728N (antibody, V domains shown) VH: EVQLVESGGDLVQPGGSLRLSCTASGFTFSKYWMTWVRQAPGRGLEWVANIKEDGNEKYFLDSVKGRFTISRDNAKDLLFLQMNSLRGEDTAVYYCVRDRGIEVAGPFDYWGQGTLVTVSS VL: DIQMTQSPSTLSASVGDRVTVTCRASQTIINWLAWYQQKPGKAPKLLISKASSLESGVPSRFSGSGSGTEFTLTISSLQPDDFATYYCQQYNRYWTFGQGTMVEIK    83.9
2. H2M743N (antibody, V domains shown) VH: EVQLLESGGGLVQPGGSLRLSCAASGFTFRKYAMSWVRQAPGKGLEWVSVISVSGGNTYYADSVKGRFTISRDNSKNTLYLQLNSLRAEDTAVYYCAKDLTDIVLMVYVDYWGQGTLVTVSS VL: DIQMTQSPSSVSASVGDRVTITCRASQDIDRWLAWYQQKPGKAPKLLIYAASSLQSGVPSRFSGSGSGTDFTLTISTLQPEDFATYYCQQANSLPFTFGGGTKVEIK    98.4
3. H2M730N (antibody, V domains shown) VH: EVQLVESGGGLVQPGGSLRLSCAASGFAFRSYWMTWVRQAPGKGLEWVANIQQDGNDKYYVDSVKGRFTISRDNAKNSLYLQMNSLRAEDTAVYYCARDTGIAEAGPFDYWGQGTLVTVSS VL: DIQMTQSPSTLSASVGDRVSITCRASQTIISWLAWYQQKPGKAPRLLIYKASSLESGVPSRFSGSGSGTEFTLTINSLQPDDFATYYCQQYNRYWTFGQGTKVEIK    55

Lab note: next binder to report on.
Q: Please give the measured Percent Blocking of Ang-2FD Binding to Tie-2 for this binder: H1M724N (antibody, V domains shown) VH: QVQLVESGGGVVQPGRSLRLSCAASGFTLSNYGMHWVRQAPGKGLEWVAVIWHDGSNTYYADSVKGRFTISRDNSKNTLYLQMNSLRAEDTAVYYCTREGLDFWSGYYPNWFDPWGQGTLVTVSS VL: DIQMTQSPSSLSASVGDRVTITCRASQGIRNDLGWYQQKPGKAPKRLIYAASNLQGGVPSRFSGSGSGTEFTLTISSLQPEDFAAYYCLQHNIYPLTFGGGTKVEIK
Result: 96.6
